- Test system: NCI-H226 lung
- assay-text: NCI tumour cell line growth inhibition, 48 h; in the data active means GI50 below about 0.43 µM; inactive means the rest
Possible outcomes: TRUE (active), FALSE (inactive)

{"columns": ["smiles-text", "system-name", "cat"],
 "data": [
  ["O=C(Nc1nc2ccc(OC(F)(F)F)cc2s1)c1ccc(F)cc1", "NCI-H226 lung", "FALSE"],
  ["CN1CCN(CCCCCOc2cc(O)c3c(=O)cc(-c4ccccc4)oc3c2)CC1", "NCI-H226 lung", "FALSE"],
  ["CCN(CC)CCOc1ccc(/C(=C(\\C)Cc2ccc(OC)cc2)c2ccc(O)cc2)cc1", "NCI-H226 lung", "FALSE"],
  ["COc1cc2c3c(n(CCCNCCCCN)c(=O)c2cc1OC)-c1cc2c(cc1C3=O)OCO2", "NCI-H226 lung", "FALSE"],
  ["CN(C)C/C=C/C(=O)Nc1ccc(C(=O)Nc2cccc(Nc3ncc(Cl)c(-c4c[nH]c5ccccc45)n3)c2)cc1", "NCI-H226 lung", "TRUE"]
]}
